Recorded below: log10 Ki, system UniProtKB Q16790.
Heads up: the numbers are on a log10 scale; they represent Ki in nM.

input: Answer with log10 Ki of "NS(=O)(=O)Nc1ccc(S(=O)(=O)Nc2ccc(C(=O)O)cc2)cc1" measured for UniProtKB Q16790.
output: 1.76

input: Answer with log10 Ki of "NS(=O)(=O)Nc1ccc(S(=O)(=O)Nc2ccc(C(=O)NCCc3ccc(S(N)(=O)=O)cc3)cc2)cc1" measured for UniProtKB Q16790.
output: -0.40

input: Answer with log10 Ki of "NS(=O)(=O)NCCc1ccc(S(N)(=O)=O)cc1" measured for UniProtKB Q16790.
output: 2.79

New cases:
input: Answer with log10 Ki of "NS(=O)(=O)Nc1ccc(S(N)(=O)=O)cc1" measured for UniProtKB Q16790.
output: 1.81

input: Answer with log10 Ki of "NS(=O)(=O)Nc1ccc(S(=O)(=O)Nc2ccc(S(N)(=O)=O)cc2)cc1" measured for UniProtKB Q16790.
output: 1.43

input: Answer with log10 Ki of "CC(=O)Nc1ccc(S(=O)(=O)Nc2ccc(C(=O)NCCc3ccc(S(N)(=O)=O)cc3)cc2)cc1" measured for UniProtKB Q16790.
output: 0.65

Every entry's value here was drawn from ChEMBL document CHEMBL2163195.
